Assay: Quantitative High-Throughput drug screen in 47 multiple myeloma cell lines against the NCATS MIPE library collection: OPM1_PLB cell viability assay (AID 1918989); further: nearly all actives have a fitted effect of over 40% in size
Conditions: CellTiter-Glo, 48 h; series mostly up to 45.8 µM
Text: PI: Beverly A. Mock Ph.D. Laboratory of Cancer Biology and Genetics, Center for Cancer Research, National Cancer Institute, National Institute of Health, Bethesda, Maryland […] 5; Detector; 425V; Luminescence; Viewlux PerkinElmer. […] 1. […] Briefly, the corresponding myeloma cell lines were screened in 1,536-well plates with 500 cells, 5-uL per well for inhibition of cell viability (assessed by measuring ATP levels with CellTiterGlo). […]
Inconclusive results are not listed. Activity calls are given as the source filed them. The call rests on the fitted dose curve; in most records, active means well fitted cell-killing curve with a large enough effect; inconclusive means small, poorly fitted or top-dose-only effect, or effect the other way; inactive means no such curve, though single readings can be large or run the other way. Starred links: 1 amine or outer side, 2 acyl side, 3 side chain; linkers in the order of their positions; H or OH if unused. Positions of bridges follow the written chain, without caps; N, C: chain ends. Non-standard residues stand in square brackets, D forms with d. Residues, ends and D or L forms follow the SMILES beside them. Chains are numbered I, II in the order given. Actinocin(9to1) = Cc1c2oc3c(C)ccc(C(=O)[*:1])c3nc-2c(C(=O)[*:2])c(N)c1=O; NMeV = CN[CH](C(=O)O)C(C)C; Sar = CNCC(=O)O
Possible outcomes: 1 (active), 0 (inactive)

{"MOLECULE": "N#CC(=Cc1ccc(O)c(O)c1)C(=O)NCc1ccccc1", "ASSIGNED_LABEL": 1}
{"MOLECULE": "C#CCC(Cc1cnc2nc(N)nc(N)c2n1)c1ccc(C(=O)N[C@@H](CCC(=O)O)C(=O)O)cc1 (some centres not stated)", "ASSIGNED_LABEL": 1}
{"MOLECULE": "CC(=O)OCC(=O)[C@@]12N=C(C)O[C@H]1C[C@H]1[C@@H]3CCC4=CC(=O)C=C[C@]4(C)[C@@H]3[C@@H](O)C[C@@]12C", "ASSIGNED_LABEL": 0}
{"MOLECULE": "CNC(=O)Nc1ccc(-c2nc(N3CC4CCC(C3)O4)c3cnn(C4CCC5(CC4)OCCO5)c3n2)cc1", "ASSIGNED_LABEL": 1}
{"MOLECULE": "CCOC(=O)N1CCN([N+]([O-])=NOc2ccc([N+](=O)[O-])cc2C#N)CC1", "ASSIGNED_LABEL": 1}
{"MOLECULE": "OC[C@@H](O)[C@@H](O)[C@H](O)[C@@H](O)CO", "ASSIGNED_LABEL": 0}
{"MOLECULE": "CCCCOc1ccc(C(=O)Nc2ccc(F)cc2F)cc1", "ASSIGNED_LABEL": 0}
{"MOLECULE": "CC(C=CC=C(C)C=CC1=C(C)CCCC1(C)C)=CC=CC=C(C)C=CC=C(C)C=CC1=C(C)CCCC1(C)C", "ASSIGNED_LABEL": 0}
{"MOLECULE": "COc1cc2ncnc(Nc3cccc(Br)c3)c2cc1OC", "ASSIGNED_LABEL": 1}
{"MOLECULE": "O=C(C=CC#Cc1cccc(NS(=O)(=O)c2ccccc2)c1)NO", "ASSIGNED_LABEL": 1}
{"MOLECULE": "COc1cccc2c1C(=O)c1c(O)c3c(c(O)c1C2=O)C[C@@](O)(C(=O)CO)C[C@H]3O[C@H]1C[C@H](N)[C@H](O)[C@H](C)O1", "ASSIGNED_LABEL": 1}
{"MOLECULE": "Cc1ccccc1C(=O)Nc1ccc(C(=O)N2CCCC(O)c3cc(Cl)ccc32)c(C)c1 (configuration not stated)", "ASSIGNED_LABEL": 0}
{"MOLECULE": "COc1cc(C[C@@H](CO)[C@H](CO)Cc2ccc(O)c(OC)c2)ccc1O", "ASSIGNED_LABEL": 1}
{"MOLECULE": "Nc1ncn([C@@H]2O[C@H](CO)[C@@H](O)[C@@H]2O)c(=O)n1", "ASSIGNED_LABEL": 1}
{"MOLECULE": "CC(C)C[C@H](NC(=O)[C@@H](NC(=O)c1cccc(-c2ccccc2)n1)[C@@H](C)O)B(O)O", "ASSIGNED_LABEL": 1}
{"MOLECULE": "O=S(=O)(O)CCSSCCS(=O)(=O)O", "ASSIGNED_LABEL": 0}
{"MOLECULE": "Nc1nc(=O)n([C@H]2CSC(CO)O2)cc1F (some centres not stated)", "ASSIGNED_LABEL": 0}
{"MOLECULE": "COc1ccc2c(c1OC)C(=O)OC2[C@H]1c2c(cc3c(c2OC)OCO3)CCN1C (some centres not stated)", "ASSIGNED_LABEL": 1}
{"MOLECULE": "CN(N=O)C(=O)N[C@H]1C(O)OC(CO)[C@@H](O)[C@H]1O (some centres not stated)", "ASSIGNED_LABEL": 0}
{"MOLECULE": "Cn1c(Nc2ccc(C(F)(F)F)cc2)nc2cc(Oc3ccnc(-c4ncc(C(F)(F)F)[nH]4)c3)ccc21", "ASSIGNED_LABEL": 1}
{"MOLECULE": "N#CC(=C(O)c1ccc(Cl)cc1Cl)c1nc2cc(Cl)ccc2c(=O)[nH]1", "ASSIGNED_LABEL": 0}
{"MOLECULE": "COC(=O)C=CC(=O)OC", "ASSIGNED_LABEL": 1}
{"MOLECULE": "N#Cc1c(C2CCNCC2)cc(-c2c(O)cccc2OCC2CC2)nc1N", "ASSIGNED_LABEL": 1}
{"MOLECULE": "O=C(Nc1cc2cc[nH]c2cn1)c1ccccc1", "ASSIGNED_LABEL": 1}
{"MOLECULE": "O=C(Nc1cccc(Nc2ncc(Br)c(NCCc3cnc[nH]3)n2)c1)N1CCCC1", "ASSIGNED_LABEL": 1}
{"MOLECULE": "c1cc(CN2CCCNCCNCCCNCC2)ccc1CN1CCCNCCNCCCNCC1", "ASSIGNED_LABEL": 0}
{"MOLECULE": "COc1cc(C)c(Sc2cnc(NC(=O)c3ccc(CNC(C)C(C)(C)C)cc3)s2)cc1C(=O)N1CCN(C(C)=O)CC1 (configuration not stated)", "ASSIGNED_LABEL": 1}
{"MOLECULE": "N#CNC(=NCCCCCCOc1ccc(Cl)cc1)Nc1ccncc1", "ASSIGNED_LABEL": 1}
{"MOLECULE": "CCc1cnn2c(NCc3ccc[n+]([O-])c3)cc(N3CCCC[C@@H]3CCO)nc12", "ASSIGNED_LABEL": 1}
{"MOLECULE": "C[C@@H](Cc1cc2c(c(C(N)=O)c1)N(CCCO)CC2)NCCOc1ccccc1OCC(F)(F)F", "ASSIGNED_LABEL": 0}
{"MOLECULE": "c1cncc(CN2CCC(n3ncc4c(N5CCOCC5)nc(-c5ccc6[nH]ccc6c5)nc43)CC2)c1", "ASSIGNED_LABEL": 1}
{"MOLECULE": "C=C1CCC2[C@](C)(CO)C(O)CC[C@]2(C)C1CC=C1C(=O)OCC1O (some centres not stated)", "ASSIGNED_LABEL": 0}
{"MOLECULE": "CC(C)c1cnn2c(NCc3ccccc3)cc(NCCCCCCN)nc12", "ASSIGNED_LABEL": 1}
{"MOLECULE": "Cc1c2oc3c(C)ccc(C(=O)NC4C(=O)NC(C(C)C)C(=O)N5CCCC5C(=O)N(C)CC(=O)N(C)C(C(C)C)C(=O)OC4C)c3nc-2c(C(=O)NC2C(=O)NC(C(C)C)C(=O)N3CCCC3C(=O)N(C)CC(=O)N(C)C(C(C)C)C(=O)OC2C)c(N)c1=O (configuration not stated) (I: TVP[Sar][NMeV] / II: TVP[Sar][NMeV]; ester I:1-I:C, II:1-II:C; linker I:N-II:N via Actinocin(9to1); configuration not given here)", "ASSIGNED_LABEL": 0}
{"MOLECULE": "CC(=O)ON=C1C(c2c(O)[nH]c3cc(Br)ccc23)=Nc2ccccc21", "ASSIGNED_LABEL": 1}
{"MOLECULE": "C[C@H](NC(=O)Cc1cc(F)cc(F)c1)C(=O)N[C@H](C(=O)OC(C)(C)C)c1ccccc1", "ASSIGNED_LABEL": 0}
{"MOLECULE": "O=C1NCCc2[nH]c(-c3ccncc3)cc21", "ASSIGNED_LABEL": 1}
